Cited source for all entries: paper PMC3792639

Molecular target: T1, Tse3 (type VI secretion exported 3), native recombinant protein (P. aeruginosa, UniProt Q9HYC5 1-408)
T1 construct: Tse3, type VI secretion exported 3, peptidoglycan muramidase effector of Pseudomonas aeruginosa; full-length, synthetic gene in pET-22b (NdeI/XhoI); Removal of the His tag is not mentioned; also called muramidase effector; source: E. coli BL21(DE3), purified (Ni-NTA, cation exchange, SEC)
T1 sequence: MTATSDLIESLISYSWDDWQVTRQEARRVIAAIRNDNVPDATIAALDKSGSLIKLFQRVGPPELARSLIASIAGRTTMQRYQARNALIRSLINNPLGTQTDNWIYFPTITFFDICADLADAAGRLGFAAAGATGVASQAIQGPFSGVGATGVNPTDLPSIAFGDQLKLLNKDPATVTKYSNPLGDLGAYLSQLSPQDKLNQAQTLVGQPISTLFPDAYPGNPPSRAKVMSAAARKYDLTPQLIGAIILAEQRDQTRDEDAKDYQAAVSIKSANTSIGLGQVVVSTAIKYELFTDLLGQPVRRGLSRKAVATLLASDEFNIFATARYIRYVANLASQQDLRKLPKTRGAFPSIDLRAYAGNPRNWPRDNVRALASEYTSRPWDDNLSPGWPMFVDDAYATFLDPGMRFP
Test: SPR; Biacore 3000, 298 K; Tse3 immobilised on a CM5 chip (2689.1-3396.3 RU); Tsi3 injected, single-cycle kinetics, five concentrations (0.02-1.62 µM for wild type, E103A, Q124A; 0.1-8.1 µM for R60A, S99A, E126A); running buffer 50 mM HEPES pH 7.5, 100 mM NaCl, 0.005% Tween-20; 1:1 Langmuir fit
Conditions: both partners purified
Exercise: for every item that follows, state its recorded log10(Kd).
All values: base-10 log of Kd in nM.

[ask] So what does the record say about log10(Kd) for Tsi3 E103A (natural protein, Tsi3, Pseudomonas aeruginosa, mutant of the truncated construct without the signal peptide (residues 1-20)) GVDFDKTLTHPNGLVVERPVGFDARRSAEGFRFDEGGKLRNPRQLEVQRQDAPPPPDLASRRLGDGEARYKVEEDDGGSAGSAYRLWAAKPAGARWIVVSASEQSEDGEPTFALAWALLERARLQ ?
[reply] 1.64

[ask] Value lookup for log10(Kd); key = Tsi3 Q124A (natural protein, Tsi3, Pseudomonas aeruginosa, mutant of the truncated construct without the signal peptide (residues 1-20)) GVDFDKTLTHPNGLVVERPVGFDARRSAEGFRFDEGGKLRNPRQLEVQRQDAPPPPDLASRRLGDGEARYKVEEDDGGSAGSEYRLWAAKPAGARWIVVSASEASEDGEPTFALAWALLERARLQ
[reply] 1.77

[ask] # query: log10(Kd) of entry Tsi3, truncated, without the N-terminal signal peptide (wild type) (natural protein, Tsi3, immunity protein of Tse3, Pseudomonas aeruginosa; truncated, without the N-terminal signal peptide (residues 1-20); synthetic gene in pET-22b (NdeI/XhoI); also called wild-type Tsi3; cognate immunity protein; source: E. coli BL21(DE3), purified (Ni-NTA, ion exchange, SEC)) GVDFDKTLTHPNGLVVERPVGFDARRSAEGFRFDEGGKLRNPRQLEVQRQDAPPPPDLASRRLGDGEARYKVEEDDGGSAGSEYRLWAAKPAGARWIVVSASEQSEDGEPTFALAWALLERARLQ
[reply] 1.45

[ask] Consider the binder shown here: Tsi3 S99A (natural protein, Tsi3, Pseudomonas aeruginosa, mutant of the truncated construct without the signal peptide (residues 1-20)) GVDFDKTLTHPNGLVVERPVGFDARRSAEGFRFDEGGKLRNPRQLEVQRQDAPPPPDLASRRLGDGEARYKVEEDDGGAAGSEYRLWAAKPAGARWIVVSASEQSEDGEPTFALAWALLERARLQ What is its recorded log10(Kd)?
[reply] 3.52

[ask] Which log10(Kd) value is on record for Tsi3 E126A (natural protein, Tsi3, Pseudomonas aeruginosa, mutant of the truncated construct without the signal peptide (residues 1-20)) GVDFDKTLTHPNGLVVERPVGFDARRSAEGFRFDEGGKLRNPRQLEVQRQDAPPPPDLASRRLGDGEARYKVEEDDGGSAGSEYRLWAAKPAGARWIVVSASEQSADGEPTFALAWALLERARLQ ?
[reply] 2.62
